- measurement-protocol: BET inhibitor-based combinations targeting novel dependencies in MECOM-rearranged (r) AML: OCI-AML3 cell line (AID 2202232); further: nearly all actives have a fitted effect of over 35% in size
- condition-description: CellTiter-Glo luminescence, 48 h; OCI-AML3 viability; series mostly up to 46 µM
Records with an inconclusive call do not appear. Active and inactive are the calls of the source. The call rests on the fitted dose curve; in most records, active means well fitted inhibition curve with a large enough effect; inconclusive means small, poorly fitted or top-dose-only effect; inactive means no such curve, though single readings can be large or run the other way.
Outcomes: active, inactive

>>> group_label("Nc1ccc(F)cc1NC(=O)c1ccc(CNC(=O)/C=C/c2cccnc2)cc1")
"active"
>>> group_label("Cc1cc(C)c2c(c1)[C@@H](N(Cc1cc(C(F)(F)F)cc(C(F)(F)F)c1)c1nnn(C)n1)CCCN2CC1CCC(C(=O)O)CC1 (some centres undefined)")
"active"
>>> group_label("C/C(=N\\NC(=S)N1CCC1)c1ccccn1")
"active"
>>> group_label("CCc1c(C(=O)NNC(=O)[C@@H](O)c2cc(F)cc(F)c2)ccc(O)c1C")
"inactive"
>>> group_label("Cc1nc(-c2cn3c(n2)-c2ccc(-c4cnn(C(C)(C)C(N)=O)c4)cc2OCC3)n(C(C)C)n1")
"active"
>>> group_label("Cc1cc(C)c(S(=O)(=O)N(CCc2cccc(Br)c2)Cc2ccc(-c3cccc(S(C)(=O)=O)c3)cc2)c(C)c1")
"inactive"
>>> group_label("Nc1[nH]nc2nnc(-c3c(-c4ccccc4)nn4ccccc34)cc12")
"active"
>>> group_label("Cc1ccc(C(=O)Nc2ccc(CN3CCN(C)CC3)c(C(F)(F)F)c2)cc1C#Cc1cnc2[nH]ncc2c1")
"active"
>>> group_label("O=[N+]([O-])c1ccc(O)c2ncccc12")
"active"

Data origin: PubChem BioAssay (NCATS)
